PROTOCOL SUMMARY: solvent given as SMILES
ASSAY CONTEXT: in CC(C)CC(C)O
Give measured solvation free energy, 298 K for each item. Keep answers brief.
One number for each entry, in kcal/mol.

Sample records with solvation free energy, 298 K:
c1ccc(-c2ccccc2)cc1 | -8.13
c1ccc2cc3ccccc3cc2c1 | -9.89
Cc1cc(C)c(C)cc1C | -6.69

Proceed to the following item.
Problem: Would you mind telling me what solvation free energy, 298 K value was observed for c1cc2ccc3cccc4ccc(c1)c2c34 ?
Solution: -11.4

----------
PROTOCOL SUMMARY: solvent given as SMILES
ASSAY CONTEXT: in CCCCCCO
Kindly return T if reported solvation free energy, 298 K is no lower than -10 kcal/mol; return F if it is lower.

Answered examples (5):
c1ccc2ccccc2c1 | T
CCCCC | T
O=C(O)c1cccc([N+](=O)[O-])c1C(=O)O | F
COc1ccc(C(=O)O)cc1 | F
FC(F)(F)F | T

Problem: Entry CCCCCC : is its solvation free energy, 298 K no less than -10 kcal/mol?
Solution: T

Problem: Evaluate c1ccc(-c2ccccc2)cc1 : solvation free energy, 298 K at minimum -10 kcal/mol?
Solution: T

Problem: Could you tell me if the measured solvation free energy, 298 K of O=S(=O)(c1ccccc1)c1ccccc1 reaches -10 kcal/mol or more?
Solution: F

Problem: Is the recorded value of solvation free energy, 298 K equal to or greater than -10 kcal/mol for this compound? c1cc2ccc3cccc4ccc(c1)c2c34
Solution: F

Problem: solvation free energy, 298 K >= -10 kcal/mol for c1ccc2c(c1)Sc1ccccc1S2 ?
Solution: F

Problem: Identify whether the reported solvation free energy, 298 K of the following compound is -10 kcal/mol or greater: NC(=O)c1ccccc1O
Solution: F

Problem: Textbook exercise: given the entry Nc1ccc(C(=O)O)cc1 , state whether its solvation free energy, 298 K is greater than or equal to -10 kcal/mol.
Solution: F

Problem: Reported solvation free energy, 298 K reaches at least -10 kcal/mol for O=C(O)c1cccc([N+](=O)[O-])c1 ?
Solution: F

Problem: Does solvation free energy, 298 K meet or surpass -10 kcal/mol for CCc1ccc2c(c1)C(=O)c1ccccc1C2=O ?
Solution: F

Problem: Threshold query (solvation free energy, 298 K >= -10 kcal/mol) on CCCCCCC
Solution: T

----------
PROTOCOL SUMMARY: solvent given as SMILES
ASSAY CONTEXT: in CNC(C)=O
Provide the reported solvation free energy, 298 K of each item.
Give bare numbers, in kcal/mol.

Below are worked cases with known answers.
CC#N | -4.23
c1ccncc1 | -5.35
CCCCCC | -2.74
CCO | -4.98

Each of the following entries comes with a recorded value; kindly state solvation free energy, 298 K for each.
1. CCOCC
2. CCc1ccccc1
3. CCCCC
4. CCCCCCC

Solution:
-2.77
-5.05
-2.17
-3.34

For every record below, what is its solvation free energy, 298 K?
1. CC(C)=O
2. CCOC(C)=O

Solution:
1: -3.67; 2: -4.04

Problem: Suppose we examine the compound CC(=O)CC(C)C ; what solvation free energy, 298 K value has been reported?
Solution: -4.82

----------
Consider the following molecules; for each one, report its solvation free energy, 298 K.
PROTOCOL SUMMARY: solvent given as SMILES
ASSAY CONTEXT: in CCC(C)CO
Numbers only, in kcal/mol.

Consider the reported solvation free energy, 298 K for these molecules:
CC(F)F | -1.23
C=CC | -1.3
C=C(C)C | -1.98

Next item in the queue.
Problem: // returns reported solvation free energy, 298 K for input O=S(=O)(c1ccccc1)c1ccccc1
Solution: -13.2

----------
PROTOCOL SUMMARY: solvent given as SMILES
ASSAY CONTEXT: in CC(O)CO
RECORDED ENDPOINT: solvation free energy, 298 K (kcal/mol)
Answers are plain numbers, in kcal/mol.

Worked cases, answers included:
CCc1ccccc1 | -4.1
CCCCCCC | -2.33
CCCCCC | -1.94

Problem: Query: solvation free energy, 298 K; subject: CCCCCCCC
Solution: -2.84

----------
PROTOCOL SUMMARY: solvent given as SMILES
ASSAY CONTEXT: in CCCCCCCCCC
What solvation free energy, 298 K was measured for each of the following?
Answers are plain numbers, in kcal/mol.

Please review the following examples before continuing.
CCCCCCC | -4.53
O=S(=O)(c1ccccc1)c1ccccc1 | -11.8
O=[N+]([O-])c1cccc2ccccc12 | -9.39
C[N+](=O)[O-] | -2.69

Shifting focus to the compound that follows.
Problem: So what does the record say about solvation free energy, 298 K for CCCCCCO ?
Solution: -4.99

----------
PROTOCOL SUMMARY: solvent given as SMILES
ASSAY CONTEXT: in C1COCCO1
RECORDED ENDPOINT: solvation free energy, 298 K (kcal/mol)
Answers are plain numbers, in kcal/mol.

CC#N | -4.45

Hi! Can you tell me solvation free energy, 298 K for each of these molecules?
1. CCC(C)O (centres undefined)
2. O=c1[nH]c2ccccc2n1C1CCN(CCCC(c2ccc(F)cc2)c2ccc(F)cc2)CC1
3. FC(F)(F)F
4. O=S(=O)(c1ccccc1)c1ccccc1
5. NC(=O)c1ccccc1O

Solution:
1. -5.54
2. -27.7
3. 1.38
4. -15
5. -13

Dear reader, for each entry below, please note its solvation free energy, 298 K.
1. CC(C)=O
2. C1CC1
3. C1CCOCC1
4. CCCCCCCCC

Solution:
[-3.87, -1.94, -4.53, -5.1]

Look at each molecule and report its solvation free energy, 298 K.
1. CCCCCCl
2. CCCCCC
3. CCI
4. CCCCCCCC
5. Nc1ccc(C(=O)O)cc1
6. CCC(C)Cl (centres undefined)
7. c1ccc2ccccc2c1

Solution:
1. -4.94
2. -3.22
3. -4.21
4. -4.49
5. -14.6
6. -4.08
7. -7.98

For the 2 molecules below, give their solvation free energy, 298 K values.
1. FC(F)(F)C(Cl)Br (centres undefined)
2. CC(C)CCC(C)C

Solution:
1: -4.41; 2: -4.04

----------
I'd appreciate it if you could supply solvation free energy, 298 K values for the items below.
PROTOCOL SUMMARY: solvent given as SMILES
ASSAY CONTEXT: in CCCCCCCCC=CCCCCCCCC(=O)OCC(COC(=O)CCCCCCCC=CCCCCCCCC)OC(=O)CCCCCCCC=CCCCCCCCC
Give bare numbers, in kcal/mol.

Solved cases below.
Clc1ccc(Cl)c(Cl)c1Cl | -7.82
ClC(Cl)(Cl)C(Cl)(Cl)Cl | -5.42
c1cc2cccc3c4cccc5cccc(c(c1)c23)c54 | -16.9
ClC1C(Cl)C(Cl)C(Cl)C(Cl)C1Cl (stereo not given) | -11.2
CCCCCCCCCCCCCCCCCCCC | -12.5
CCO | -3.22

Please go through the list and note solvation free energy, 298 K for each compound.
1. Cc1cc(Cl)c(Cl)cc1Cl
2. O=[N+]([O-])c1ccc(Cl)c(Cl)c1
3. O=[N+]([O-])c1ccc(Cl)c(Cl)c1Cl
4. c1cc2ccc3cccc4ccc(c1)c2c34

Solution:
[-7.99, -7.34, -10.1, -12.3]

I have 2 compounds here; please give me solvation free energy, 298 K for each one.
1. CCCCCCC
2. CCCCCCCCCCCCO

Solution:
1: -4.09; 2: -10.2

----------
PROTOCOL SUMMARY: solvent given as SMILES
ASSAY CONTEXT: in O
RECORDED ENDPOINT: solvation free energy, 298 K (kcal/mol)
One number for each entry, in kcal/mol.

Known results for compounds:
CCCCCOC(=O)CC | -2.11
CCCCN(C)N=O | -5.37
COc1c(O)c(OC)c(Cl)c(C=O)c1Cl | -8.68
CNc1nc(NC(C)C)nc(SC)n1 | -10.5
CCCCC(=O)CC(=O)CCCC | -4.13

Hey, quick one: what's solvation free energy, 298 K for each of these?
1. CCCCC1CCCCC1
2. CCc1ccncc1
3. CS(=O)(=O)Cl
4. FC(F)(F)Cl
5. CC(=O)OCCOC(C)=O
6. CCCC(=O)OC

Solution:
[1.96, -4.73, -4.87, 2.31, -6.34, -2.84]

Kindly give each listed record's solvation free energy, 298 K.
1. COc1nc(NC(C)C)nc(NC(C)C)n1
2. CCI
3. CC(C)CCCOC(=O)c1ccccc1C(=O)OCCCC(C)C
4. O=C(O)c1cccc([N+](=O)[O-])c1
5. CCCCCCCCC=CCCCCCCCC(=O)OCC
6. O=C(Oc1ccccc1)c1ccccc1C(=O)Oc1ccccc1
7. CC(=O)C(C)C
8. CC(C(=O)O)c1ccc2c(c1)[nH]c1ccc(Cl)cc12 (stereo not given)

Solution:
1. -9.69
2. -0.74
3. -6.73
4. -9.45
5. -8.25
6. -11.6
7. -3.24
8. -15.1

// for each compound below, give its solvation free energy, 298 K
1. CC(=O)N(C)C
2. CC=CC
3. CC(=O)C1COCCOCCOCCOCCOc2ccccc2O1 (stereo not given)

Solution:
1. -8.15
2. 1.34
3. -17.8

// each listed compound needs a value for solvation free energy, 298 K
1. Nc1ccc(S(=O)(=O)Nc2ccccn2)cc1
2. Clc1ccc(C(c2ccc(Cl)cc2)C(Cl)(Cl)Cl)cc1
3. CN1C(=O)CN=C(c2ccccc2)c2cc(Cl)ccc21
4. Cc1ccc(C(=O)N(C)C)cc1
5. CCCSCCC
6. Nc1cnn(-c2ccccc2)c(=O)c1Cl
7. CS(C)(=O)=O

Solution:
1. -18.7
2. -4.61
3. -12.6
4. -9.76
5. -1.28
6. -16.4
7. -10.1

// each compound listed below needs its solvation free energy, 298 K
1. CCOCC
2. CC(=O)OCC(C)C
3. FCF
4. COc1c(Cl)cc(Cl)c(OC)c1O
5. CC(C)S
6. CCC(=O)OC

Solution:
-1.74
-2.41
-0.33
-6.44
-0.7
-2.93

Cited source: the CombiSolv-Exp solvation set (Vermeire and Green 2021)
